Source: paper PMC7586797

assay: Plasma pharmacokinetics after single 40 mg oral dose (LC-MS/MS, noncompartmental); type: in vivo, human; settings: human, po, 40 mg, 40 mg single oral dose, empty stomach, read-out: Cmax, Mean (SD)
assay_endpoint: Cmax (ng/mL)
Just the number in ng/mL, nothing appended.

INPUT: May I ask what Cmax has been recorded for "CC(C)n1nc(-c2ccc3oc(N)nc3c2)c2c(N)ncnc21" ?
OUTPUT: 337

* * *

Experiment: Plasma pharmacokinetics after single 40 mg oral dose (LC-MS/MS, noncompartmental)
Assay type: in vivo, human
Conditions: human, po, 40 mg, 40 mg single oral dose, no unit in table (hours), read-out: T1/2 (terminal disposition half-life), Median (range) (converted)
Experimental: On cycle 1 day 1, triplicate ECGs and plasma samples for PK were collected from patients ≤15 minutes prior to dosing and at 15 minutes; 30 minutes; and 1‐, 1.5‐, 2‐, 2.5‐, 3‐, 4‐, 6‐, 8‐, and 10‐hour time points after receiving a single oral dose of 40‐mg sapanisertib. […] Plasma samples were analyzed for sapanisertib using a validated liquid chromatography with tandem mass spectrometry method with deuterated sapanisertib used as the internal standard. […]
assay_endpoint: half-life (min)
Only the number, expressed in min, is required.

INPUT: Reported half-life, compound "CC(C)n1nc(-c2ccc3oc(N)nc3c2)c2c(N)ncnc21" : ____
OUTPUT: 544
